test: Water solubility; assay type: physicochemical; conditions: aqueous buffer, pH 6.8, the substance or its hydrochloride
Measured quantity: solubility (µg/mL)
A number alone suffices; assume µg/mL.

Query: Could you share which solubility value was measured for CNCc1cn(S(=O)(=O)c2cccc(F)c2)c(-c2ccc(F)cc2F)c1OC [Chemical Formula 1] ?
Reply: 2170

Value source: patent US20240261261A1
